Data origin, for the record: patent US10239887B2

# targetDesc: human mAChR M4 (Homo sapiens, UniProt P08173)
# protocolDetails: mAChR M4 cell-based functional assay (calcium flux), human M4
# details: Human M4; % ACh maximum at 30 μM
Structures can show the parent of a compound that is named as a salt.
parameter: Emax (%)

Ask: Need Emax of Cc1nnc2sc3c(NC4CN(c5ccc(C(F)(F)F)nc5)C4)ncnc3c2c1C , thanks.
Result: 36

Ask: Reported Emax, compound COc1ccc(C2CC2Nc2ncnc3c2sc2nnc(C)c(C)c23)cc1 (stereo not shown) : ____
Result: 44

A = Cc1nnc2sc3c(N4CC(Oc5cccc(F)c5)C4)ncnc3c2c1C
B = Cc1cc(C)c2c(n1)oc1c(NC3CN(c4ncc(F)cn4)C3)ncnc12 [Compound 59, hydrochloride]
Ask: Lower value of Emax belongs to which: A or B ? # respond with the chosen item's label
Result: B

====

# targetDesc: human mAChR M4 (Homo sapiens, UniProt P08173)
# protocolDetails: mAChR M4 cell-based functional assay (calcium flux), human M4
# details: Human M4; % ACh maximum at 30 μM
Counter-ions that a name gives are not always drawn.
parameter: Emax (%)

// known answers, use as guide
Ask: For COc1ccc(CNc2ncnc3c2sc2nnc(C)c(C)c23)cc1F , what is its reported Emax?
Result: 62

Ask: Requested read-out: Emax. Entry: Cc1nnc2oc3c(NC4CC4)ncnc3c2c1C
Result: 66.5

Ask: Query (compound): Cc1nnc2oc3c(NC4CCCC4)ncnc3c2c1C ; field requested: Emax
Result: 45.9

Ask: Quick check: Emax of Cc1nnc2sc3c(N4CC(C)(O)C4)ncnc3c2c1C ?
Result: 59

Ask: // returns reported Emax for input Cc1nnc2sc3c(N4CCC(c5ccccc5)C4)ncnc3c2c1C (centres unmarked)
Result: 49

P = Cc1nnc2sc3c(N4CCC4)ncnc3c2c1C
Q = Cc1nnc2oc3c(N4CC5(COC5)C4)ncnc3c2c1C
Ask: Input pair: P , Q . Output: entry with lower Emax. Choose, then provide that item's label.
Result: Q
(Q: 46.1%, P: 68%)

P = Cc1nnc2sc3c(NC4CC4)ncnc3c2c1C
Q = COc1ccc(CNc2ncnc3c2oc2nnc(C)c(C)c23)cc1F
Ask: Two entries are listed, P and Q . Which one carries the higher Emax? Please identify the chosen entry by its label.
Result: P

I = COCC1CN(c2ncnc3c2sc2nnc(C)c(C)c23)C1
II = CCNc1ncnc2c1oc1nc(C)c(Cl)c(C)c12 [Compound 47, hydrochloride]
Ask: # query: argmin of Emax over I and II Mark your answer with the label of the selected entry.
Result: II
(II: 40.6%, I: 62%)

a = CC(=O)N1CC(Nc2ncnc3c2sc2nnc(C)c(C)c23)C1
b = Cc1nnc2oc3c(NC4CCC4)ncnc3c2c1C
Ask: Name the one with the greater Emax value, either a or b as given. Field: selected label. Fill in the label of the entry you choose.
Result: a
(a: 79%, b: 54.8%)

====

# targetDesc: human mAChR M4 (Homo sapiens, UniProt P08173)
# protocolDetails: mAChR M4 cell-based functional assay (calcium flux), human M4
# details: Human M4; % ACh maximum at 30 μM
parameter: Emax (%)

A = Cc1nnc2sc3c(N4CCN(C5CC5)CC4)ncnc3c2c1C
B = Cc1nnc2oc3c(NCc4ccc(C(C)(C)O)cc4)ncnc3c2c1C
C = Cc1cnc2sc3c(N4CCC(F)(F)C4)ncnc3c2c1
Ask: // ascending sort on Emax for the entries above As an answer, provide the labels arranged in the order called for.
Result: A, B, C

a = Cc1nnc2sc3c(N4CCCCC4)ncnc3c2c1C
b = Cc1nnc2sc3c(NC4CCC4)ncnc3c2c1C
Ask: Pick one, a or b : lowest reported Emax. // respond with label for picked entry
Result: a
(a: 44%, b: 73%)

1 = Cc1nnc2oc3c(NC4CN(c5ncc(F)cn5)C4)ncnc3c2c1C
2 = Cc1nnc2oc3c(NCc4cccc(C(C)(C)O)c4)ncnc3c2c1C
Ask: # argmax over Emax for candidates 1 and 2 Write down the label of the entry you select.
Result: 2
(2: 63.4%, 1: 36.8%)

I = Cc1nnc2oc3c(NCc4ccc(C5(O)CCC5)cc4)ncnc3c2c1C
II = Cc1cc(C)c2c(n1)oc1c(NCc3cccc(C(C)(C)O)c3)ncnc12
Ask: Just curious, which one has the larger Emax reading, I or II ? // caller expects the label of the chosen entry
Result: I
(I: 58.2%, II: 23.7%)

====

# targetDesc: UniProt:P08173
# protocolDetails: mAChR M4 cell-based functional assay (calcium flux), human M4
# details: Table 10; % ACh maximum at 30 μM
Where a name gives a salt, the structure may show the parent alone.
parameter: Emax (%)

The following compounds have reported results that may help.
Ask: Value lookup for Emax; key = Cc1nnc2sc3c(N(C)Cc4ccc(C(C)(C)O)cc4)ncnc3c2c1C
Result: 80.6

Ask: Would you mind telling me what Emax value was observed for Cc1nnc2sc3c(NC4CNC4)ncnc3c2c1C [Compound 88, dihydrochloride] ?
Result: 73.7

Ask: // Emax lookup, key: Cc1nnc2sc3c(NCc4ccc(F)c(C(C)(C)O)c4)ncnc3c2c1C
Result: 52.5

a = Cc1nnc2sc3c(NC4CCN(c5cccc(F)c5F)C4)ncnc3c2c1C (centres unmarked)
b = Cc1nnc2sc3c(NCc4ccc(F)c(C(=O)NC5CCC5)c4)ncnc3c2c1C
Ask: Select the item whose Emax value is smaller, choosing between a and b . // output: label of the selected item
Result: a
(a: 62.6%, b: 98.5%)

====

# targetDesc: human mAChR M4 (Homo sapiens)
# Sequence (P08173 1-479): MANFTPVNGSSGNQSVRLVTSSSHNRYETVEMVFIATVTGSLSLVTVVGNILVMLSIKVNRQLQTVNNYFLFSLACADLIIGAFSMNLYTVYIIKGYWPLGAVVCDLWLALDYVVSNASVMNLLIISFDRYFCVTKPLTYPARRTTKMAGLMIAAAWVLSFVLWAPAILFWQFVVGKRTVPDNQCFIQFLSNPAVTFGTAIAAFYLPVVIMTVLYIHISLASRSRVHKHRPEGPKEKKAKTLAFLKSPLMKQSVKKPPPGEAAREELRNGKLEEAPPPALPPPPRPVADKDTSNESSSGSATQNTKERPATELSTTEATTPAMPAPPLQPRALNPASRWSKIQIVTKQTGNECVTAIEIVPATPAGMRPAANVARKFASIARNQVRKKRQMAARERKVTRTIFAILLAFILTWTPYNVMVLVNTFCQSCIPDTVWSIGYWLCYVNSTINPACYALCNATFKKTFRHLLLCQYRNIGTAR
# protocolDetails: mAChR M4 cell-based functional assay (calcium flux), human M4
# details: Table 11; % ACh maximum at 30 μM
parameter: Emax (%)

1 = Cc1nnc2sc3c(NCc4ccc(C(=O)NC5CC5(C)C)c(Cl)c4)ncnc3c2c1C (stereo not shown) [Compound 319]
2 = Cc1nnc2sc3c(NC4CC(O)(c5ccc(F)cc5)C4)ncnc3c2c1C (stereo not shown) [Compound 339]
Ask: Which of the two items, 1 and 2 , has the greater recorded Emax? Kindly state the label of the option you pick.
Result: 1

====

# targetDesc: cynomolgus monkey M4 (Macaca fascicularis, UniProt G7PQB4)
# Sequence (G7PQB4 1-479): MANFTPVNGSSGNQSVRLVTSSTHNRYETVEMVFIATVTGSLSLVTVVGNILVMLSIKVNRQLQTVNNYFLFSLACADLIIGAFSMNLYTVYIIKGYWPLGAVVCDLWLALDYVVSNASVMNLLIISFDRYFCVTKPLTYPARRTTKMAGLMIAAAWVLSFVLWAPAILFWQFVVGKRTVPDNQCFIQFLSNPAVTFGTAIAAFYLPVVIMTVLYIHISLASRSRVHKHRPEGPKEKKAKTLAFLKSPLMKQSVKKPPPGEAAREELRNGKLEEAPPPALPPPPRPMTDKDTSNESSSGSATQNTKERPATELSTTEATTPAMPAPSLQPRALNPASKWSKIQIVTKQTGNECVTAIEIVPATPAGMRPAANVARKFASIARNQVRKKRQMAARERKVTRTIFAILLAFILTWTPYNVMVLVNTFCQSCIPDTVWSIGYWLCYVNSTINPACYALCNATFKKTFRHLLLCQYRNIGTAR
# protocolDetails: mAChR M4 cell-based functional assay (calcium flux), cyno M4
# details: CHO-K1 cells
parameter: EC50 (nM)
The response must be a number in nM with no trailing unit.

Ask: Which EC50 value belongs to Cc1nnc2sc3c(NCc4ccc(C(C)(C)O)cc4)ncnc3c2c1C ?
Result: 120

====

# targetDesc: human mAChR M4 (Homo sapiens)
# protocolDetails: mAChR M4 cell-based functional assay (calcium flux), human M4
# details: Human M4 EC50 (nM), Table 10; calcium flux, PAM activity with EC20 acetylcholine
Counter-ions that a name gives are not always drawn.
parameter: EC50 (nM)

A selection of reference data follows.
Ask: What value of measured EC50 is listed for Cc1nnc2sc3c(NCc4ccc(F)c(C(=O)NC5CC(F)C5)c4)ncnc3c2c1C (centres unmarked) ?
Result: 505

Ask: # get_value(readout='EC50', item= Cc1c(Cl)cnc2sc3c(N4CCC(F)C4)ncnc3c12 (centres unmarked) )
Result: 885

Ask: // lookup EC50 for Cc1nnc2sc3c(NCc4ccc(C(=O)N5CCC(F)(F)CC5)cc4)ncnc3c2c1C
Result: 724

Ask: # input molecule: Cc1nc2sc3c(NC4CN(c5ncc(C(F)(F)F)cn5)C4)ncnc3c2c(C)c1Cl [Compound 272, dihydrochloride] ; wanted: its EC50
Result: 3620

Ask: What does the record list as EC50 for COc1cc(F)c(CNc2ncnc3c2sc2nnc(C)c(C)c23)c(F)c1 ?
Result: 579

Ask: Query: EC50; subject: CNC(=O)c1ccc(CNc2ncnc3c2sc2nnc(C)c(C)c23)cc1
Result: 101

P = Cc1nnc2sc3c(NCc4ccc(C(=O)N5CC6(COC6)C5)cc4)ncnc3c2c1C
Q = Cc1nnc2oc3c(NC4CN(c5ccc(F)c(F)c5)C4)ncnc3c2c1C
Ask: I'm curious, which of these has a smaller EC50 number: P or Q ? Record your answer as the label of the chosen record.
Result: Q
(Q: 59.4 nM, P: 288 nM)
